# System: Human primary dermal fibroblasts (HPDF)
# methodSummary: MTT cytotoxicity assay, HPDF
# Format: cell-based
# settings: Homo sapiens, Fibroblast; MTT assay, 48 h of treatment, mean ± SEM
// reported pIC50 for each item listed
Value format note: pIC50 is -log10 of concentration (mol/L); just state the number.

For orientation, consider the following solved cases.
C[C@H]1[C@H](C)CC[C@]2(C(=O)O)CC[C@]3(C)C(=CC[C@@H]4[C@@]5(C)CC[C@H](O)C(C)(C)[C@@H]5CC[C@]43C)[C@H]12 [UA, ursolic acid, reference compound] : 4.23
CC1CCC2(C(=O)OCCCC[n+]3ccc(C=Cc4c[nH]c5ccccc45)cc3)CCC3(C)C(=CCC4C5(C)CCC(O)C(C)(C)C5CCC43C)C2C1C (stereo not drawn) : 5.30
CC1(C)CCC2(C(=O)OCCCC[n+]3ccc(C=Cc4c[nH]c5ccccc45)cc3)CCC3(C)C(=CCC4C5(C)CCC(O)C(C)(C)C5CCC43C)C2C1 (stereo not drawn) : 5.69
CC1(C)CC[C@]2(C(=O)O)CC[C@]3(C)C(=CC[C@@H]4[C@@]5(C)CC[C@H](O)C(C)(C)[C@@H]5CC[C@]43C)[C@@H]2C1 [OA, oleanolic acid, reference compound] : 3.81
CC1(C)CCC2(C(=O)OCCCC[n+]3ccc(C=Cc4c[nH]c5ccccc45)cc3)CCC3(C)C(=CCC4C5(C)CC(O)C(O)C(C)(C)C5CCC43C)C2C1 (stereo not drawn) : 5.03

In: GET /values?readout=pIC50&item= CC1CCC2(C(=O)OCCCC[n+]3ccc(C=Cc4c[nH]c5ccccc45)cc3)CCC3(C)C(=CCC4C5(C)CC(O)C(O)C(C)(C)C5CCC43C)C2C1C (stereo not drawn)
Out: 5.94
